So I've got a bunch of compounds here, and I need their GI50 values.
System: Hs-578T
Experiment: NCI tumour cell line growth inhibition, 48 h
Activity calls are given as the source filed them. No stated cut-off is given here; in the data, active = GI50 up to about 1.1 µM and inactive = higher.

O=Cc1ccc(OC[C@H]2COC(=O)N2)cc1
> 100 µM (inactive)
Clc1ccc(-c2nnc3sc4nc5ccccc5c-4nn23)c(Cl)c1
21.7 µM (inactive)
CC(C)(C)N(Cc1ccoc1)C(=O)/C=C\[S+]([O-])c1ccccc1 (stereo not given)
28.4 µM (inactive)

Quick one: give me GI50 for each item below, same order please.
1. COC(=O)/C=C\S/C(=C(/c1ccccc1)n1ccc(C(=O)OC)n1)c1ccccc1
2. COC(=O)c1ccccc1C1CN=NC12Cc1cc3c(cc1C2=O)CCC3 (stereo not given)
3. CCCCCCCC(=O)O[C@H]1[C@H]2[C@@H](CC1(C)C)C(=O)[C@]13O[C@H]1C(=O)[C@]1(CO1)[C@]23C

## Result
1: 26.6 µM (inactive); 2: > 100 µM (inactive); 3: 46 µM (inactive)

List reported GI50 for each of these compounds:
1. C[N+](C)([O-])C12CC3CC(CC(C3)C1)C2
2. CCC1(CC)C(=O)NN(C(=O)c2ccc(Cl)cc2)C1=O
3. CC(=O)O[C@H]1C#C/C=C\C#CC[C@@H]2C(=O)N(C(=O)OC(C)(C)C)[C@@H]12
4. C=C1CC(Cn2ccc(=O)[nH]c2=O)(c2ccc(-c3ccccc3)cc2)OC1=O (stereo not given)
5. O=C1Nc2ccccc2/C1=C\c1c(Cl)n(-c2ccccc2)c2ccccc12
6. C[C@H](CCC(=O)NCC(=O)O)[C@H]1CC[C@H]2[C@@H]3[C@H](O)C[C@@H]4C[C@H](O)CC[C@]4(C)[C@H]3CC[C@]12C

## Result
55.6 µM (inactive)
> 100 µM (inactive)
39.6 µM (inactive)
3.7 µM (inactive)
0.851 µM (active)
> 100 µM (inactive)

// each listed compound needs a value for GI50
1. CC1(C)CN=C(Nc2ccc(F)c(Cl)c2)S1
2. CCCCCc1cc2cc3c(c(O)c2c(=O)[nH]1)C1(CCC3)C(=O)c2c(O)c3c(c(O)c2C1=O)C(=O)C(OC)=CC3=O (stereo not given)
3. O=C1c2cc3c(cc2CC12Cc1cc4c(cc1C2=O)CCCC4)CCCC3
4. CCCCCCCCOC(=O)c1cc([N+](=O)[O-])c(Sc2[nH]cnc3ncnc2-3)c([N+](=O)[O-])c1
5. COc1ccc(N2C(=O)C3c4[nH]c5ccc(F)cc5c4C4CCC(C(C)(C)C)CC4C3C2=O)cc1 (stereo not given)
6. CCOC(=O)c1csc(NC(=O)CN2CCCCC2)n1
7. C[C@]12CC[C@@H]3c4cc(OCC(F)(F)F)c(O)cc4/C(=N/O)C[C@H]3[C@@H]1CC[C@@H]2O

## Result
["> 100 µM (inactive)", "0.743 µM (active)", "28.3 µM (inactive)", "5.33 µM (inactive)", "2.81 µM (inactive)", "> 100 µM (inactive)", "0.0215 µM (active)"]

Let me check: O=C(O)/C=N\N=c1[nH]c2ccccc2[nH]1 , system Hs-578T, measured GI50 is > 100 µM (inactive)

###

Tested on: MDA-MB-435
Experiment: NCI tumour cell line growth inhibition, 48 h
Calls of active or inactive are those of the source. Cut-off read from the data, not from the text of the source: active = GI50 up to about 1.1 µM and inactive = higher.
Parameter call: string, one of 1 for active, -1 for inactive

CC(C)(C)C(=O)Oc1ccc(/C=C/C(=O)c2ccc(OC(=O)C(C)(C)C)cc2)cc1
-1
CN(C)c1ccc(C2C(Cl)C(=O)N2NC(=O)c2c(Cl)c(Cl)c(Cl)c(Cl)c2-c2nc3ccccc3[nH]2)cc1 (stereo unspecified)
-1
N=C(N)NCCCC(NC(=O)c1c2ccccc2nc2ccccc12)C(=O)O (stereo unspecified)
-1
Oc1cc(-c2ccccc2Cl)nc2cc3c(cc12)OCO3
1
CCOC(=O)C1NCCc2c1[nH]c1ccccc21 (stereo unspecified)
-1
CC(=O)OCC1OC(n2c3c(cc(C#N)c2=S)CCC3)C(OC(C)=O)C(OC(C)=O)C1OC(C)=O (stereo unspecified)
-1

## Task Look up the recorded call for O=C(/C=C/c1cccs1)c1ccccc1Cl in this test.
## Result -1

## Task How did this test come out for CC(=O)NNC(=S)N/C=C1/C(=O)C=C(C)OC1=O ?
## Result -1

## Task What is the recorded call for this compound in the test? CC(=O)OC1CC2CC(=O)CC1N2C (stereo unspecified)
## Result -1

## Task What did this assay record as the result for C=C=C(C)[Si](C)(C)C ?
## Result -1

## Task For O=c1c2cc([N+](=O)[O-])ccc2[nH]n1Cc1ccccn1 , what call appears in the results of this test?
## Result -1

Values compiled from ChEMBL document CHEMBL1201862.
